Tested on: Streptococcus
Assay: Group A Streptococcus viability loss, dose response, counter-screen for streptokinase expression inhibitor project, luminescence, BacTiterGlo (AID 1915);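 note: potency for reduction of bacterial viability or growth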
Format: functional, organism-based
Calls of active or inactive are those of the source.
Record form. Attribute: EC50. Fill in for each entry.

Please give measured EC50 of the following entry: `O=C(Cn1nnc(-c2ccccc2)n1)N/N=C/c1cc([N+](=O)[O-])ccc1O`
0.55 µM (active)

Please give measured EC50 of the following entry: `Cc1ccc(Nc2nc3nonc3nc2O)cc1Cl`
20.6 µM (active)

Please give measured EC50 of the following entry: `Cc1ccc(NC(=O)CN(C)Cc2nc(O)c3cc(Br)cc(Br)c3n2)cc1`
12.2 µM (active)

Please give measured EC50 of the following entry: `NC(=O)c1ccc(NC(=O)COC(=O)c2c3c(nc4ccccc24)/C(=C\c2ccc4c(c2)OCO4)CCC3)cc1`
140 µM (active)

Please give measured EC50 of the following entry: `CCCN(Cc1ccco1)S(=O)(=O)c1ccc(OC)c(OC)c1`
> 150 µM (not active)

Please give measured EC50 of the following entry: `Oc1ccccc1-c1nc2c3ccccc3c3ccccc3c2[nH]1`
12 µM (active)

Please give measured EC50 of the following entry: `Cn1c(N)c(C(=O)COC(=O)CCc2c[nH]c3ccccc23)c(=O)n(C)c1=O`
79.6 µM (active)

----------
Experiment: inhibitors of SNCA 5'UTR-driven reporter translation, confirmation, H4 neuroglioma cells, luminescence (AID 1988)
Type: functional, cell-based
Calls of active or inactive are those of the source.
Record form. Attribute: EC50. Fill in for each entry.

Please give measured EC50 of the following entry: COc1cccc(N(C(=O)Cn2nnc(-c3cccs3)n2)C(C(=O)NC(C)C)c2ccc(C)o2)c1 (stereo unspecified)
18.8 µM (active)

Please give measured EC50 of the following entry: `CCn1c2ccccc2c2cc(Nc3cc(C)nc4ncnn34)ccc21`
< 0.1 µM (active)

Please give measured EC50 of the following entry: `CN1C(=O)C2(N=c3ccccc3=N2)c2ccccc21`
> 120 µM (not active)

Please give measured EC50 of the following entry: `Cc1ccc(S(=O)(=O)Nc2cccc3cccnc23)cc1`
11.5 µM (active)

Please give measured EC50 of the following entry: `NS(=O)(=O)c1ccc(NC(S)=Nc2ccn(Cc3cccc4ccccc34)n2)cc1`
> 120 µM (not active)

Please give measured EC50 of the following entry: `c1ccc(C(c2ccccc2)N2CCN(c3ccc4ccccc4n3)CC2)cc1`
> 120 µM (not active)

----------
Target: Ubiquitin-conjugating enzyme E2 N (Homo sapiens);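 note: Dose-response confirmation in a TR-FRET assay detecting UBC13-driven polyubiquitin chain formation, inhibition measured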
Sequence (P61088 whole entry): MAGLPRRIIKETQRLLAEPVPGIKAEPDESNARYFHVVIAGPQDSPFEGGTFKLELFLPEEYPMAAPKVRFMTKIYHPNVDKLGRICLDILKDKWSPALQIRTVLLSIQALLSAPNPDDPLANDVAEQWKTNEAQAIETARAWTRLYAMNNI
Format: functional
The source made the active and inactive calls.
Hi there, use one of these labels in your reply, thanks! t for active, f for inactive

Dear colleague, could you share the recorded outcome for `COC(=O)C1=C(C)N(Cc2ccccc2)C(NCc2cccc(C(F)(F)F)c2)=N[C@H]1c1cccc(C(F)(F)F)c1` when you have a moment?
f

Dear colleague, could you share the recorded outcome for `CCCCN=C(S)N=Nc1c(O)[nH]c2ccccc12` when you have a moment?
t

Dear colleague, could you share the recorded outcome for `Cc1cc(N2CCN(C)CC2)nc2ccc(NC(=S)N3CCN(c4cccc(Cl)c4)CC3)cc12` when you have a moment?
f

Dear colleague, could you share the recorded outcome for CCCCCCCNC(=O)C1(CC2CC(c3ccc(Cl)cc3)=NO2)CCNCC1 (centres undefined) when you have a moment?
f

Dear colleague, could you share the recorded outcome for `CCN1CCN(CCCNC(=O)c2ccc3c(c2)NC(=O)/C(=C\c2cccc(C)c2)S3)CC1` when you have a moment?
f

Dear colleague, could you share the recorded outcome for `O=C(NCCCN1CCCC1)c1ccc2c(c1)N(Cc1ccccc1)CCS2` when you have a moment?
f

Dear colleague, could you share the recorded outcome for CCOC(=O)c1c(NC(C)=O)sc2c(OCC(O)CNC(C)(C)C)c(Br)ccc12 (centres undefined) when you have a moment?
f

Dear colleague, could you share the recorded outcome for `CCCN(CCC)CCCNC(=O)c1cc2c(=O)n(CC)c3ccccc3c2s1` when you have a moment?
f

Dear colleague, could you share the recorded outcome for `COc1ccccc1CNC(=O)c1ccc2c(=O)n(CCCN3CCCC3=O)c(=S)[nH]c2c1` when you have a moment?
f
